System: Triticum aestivum (TRZAS)
Experiment: Post-emergence crop plant compatibility, greenhouse pot trial
Assay type: in vivo
Settings: 20 g/ha, post-emergence, in comparison to untreated controls
Measured Post-emergence effect against TRZAS (crop plant compatibility) of individual entries
Field format: number, assumed %, no unit text.

{"compound": "CCOC(=O)C(Oc1nn(-c2ncccc2F)c(-c2ccc(Cl)cc2)c1Br)SC (stereo not drawn)", "meas value": 0}
{"compound": "COC(=O)CCOC(=O)C(Oc1nn(-c2ncccc2F)c(-c2ccc(F)nc2)c1Br)SC (single isomer, unassigned) [Example I-22]", "meas value": 0}

input: Please list Post-emergence effect against TRZAS (crop plant compatibility) recorded for the compound COC(=O)CCOC(=O)C(Oc1nn(-c2ncccc2F)c(-c2cncc(F)c2)c1Br)SC (stereo not drawn)
output: 0

input: Please list Post-emergence effect against TRZAS (crop plant compatibility) recorded for the compound COC(=O)CCOC(=O)C(Oc1nn(-c2ncccc2F)c(-c2ccc(F)nc2)c1Br)SC (racemic) [Example I-32]
output: 0

input: Please list Post-emergence effect against TRZAS (crop plant compatibility) recorded for the compound COC(=O)C(C)COC(=O)C(Oc1nn(-c2ccccc2F)c(-c2ccc(F)nc2)c1I)SC (stereo not drawn)
output: 0

input: Please list Post-emergence effect against TRZAS (crop plant compatibility) recorded for the compound COC(=O)CCOC(=O)C(Oc1nn(-c2ccccc2F)c(-c2ccc(F)nc2)c1I)SC (stereo not drawn)
output: 0

input: Please list Post-emergence effect against TRZAS (crop plant compatibility) recorded for the compound CCOC(=O)C(Oc1nn(-c2cc(F)ccc2F)c(-c2cncc(F)c2)c1C1CC1)SC (stereo not drawn)
output: 0

input: Please list Post-emergence effect against TRZAS (crop plant compatibility) recorded for the compound COC(=O)CCOC(=O)C(Oc1nn(-c2ncccc2F)c(-c2cncc(F)c2)c1C1CC1)SC (stereo not drawn)
output: 20

input: Please list Post-emergence effect against TRZAS (crop plant compatibility) recorded for the compound CCOC(=O)C(Oc1nn(-c2ccc(Cl)cc2F)c(-c2ccc(F)cc2F)c1Br)SC (stereo not drawn)
output: 0

====

Tested on: Abutilon theophrasti (ABUTH)
Experiment: Post-emergence herbicidal action, greenhouse pot trial
Type: in vivo
Details: Abutilon theophrasti, 504 h, 320 g/ha, visual rating after about 3 weeks, read-out: Post-emergence effect at 320 g/ha against ABUTH in %
result type: pest or weed control at 320 g/ha
Don't forget the unit after the number, please.

Below are worked cases with known answers.
{"compound": "CCOC(=O)C(Oc1nn(-c2ncccc2F)c(-c2ccc(F)cc2F)c1Br)SC (centres unmarked) [Example I-14]", "target under test": "Abutilon theophrasti (ABUTH)", "pest or weed control at 320 g/ha": "80%"}
{"compound": "CCOC(=O)C(Oc1nn(-c2ncccc2F)c(-c2ccc(F)nc2)c1Br)SC (centres unmarked) [Example I-13]", "target under test": "Abutilon theophrasti (ABUTH)", "pest or weed control at 320 g/ha": "90%"}
{"compound": "COC(=O)C(Oc1nn(-c2ccccc2F)c(-c2ccc(F)nc2)c1I)SC (centres unmarked) [Example I-52]", "target under test": "Abutilon theophrasti (ABUTH)", "pest or weed control at 320 g/ha": "80%"}
{"compound": "CSC(Oc1nn(-c2ncccc2F)c(-c2ccc(F)nc2)c1Br)C(=O)O (centres unmarked) [Example I-34]", "target under test": "Abutilon theophrasti (ABUTH)", "pest or weed control at 320 g/ha": "90%"}

input: Please list pest or weed control at 320 g/ha recorded for the compound CCOC(=O)C(Oc1nn(-c2ncccc2F)c(-c2cncc(F)c2)c1C1CC1)SC (centres unmarked) [Example I-41]
output: 90%

input: Please list pest or weed control at 320 g/ha recorded for the compound CCOC(=O)C(Oc1nn(-c2ncccc2F)c(-c2ccc(F)nc2)c1Br)SC (single isomer, unassigned) [Example I-28]
output: 80%

input: Please list pest or weed control at 320 g/ha recorded for the compound CCOC(=O)C(Oc1nn(-c2ccccc2F)c(-c2ccc(F)nc2)c1C(F)(F)F)SC (centres unmarked) [Example I-46]
output: 80%

input: Please list pest or weed control at 320 g/ha recorded for the compound CSC(Oc1nn(-c2cnccn2)c(-c2ccc(F)nc2)c1Cl)C(=O)O (centres unmarked) [Example I-37]
output: 80%
